For each of the compounds below, state its AC50.
- assay_target: human CYP1A2 (Homo sapiens, UniProt P05177)
- Sequence (P05177 1-516): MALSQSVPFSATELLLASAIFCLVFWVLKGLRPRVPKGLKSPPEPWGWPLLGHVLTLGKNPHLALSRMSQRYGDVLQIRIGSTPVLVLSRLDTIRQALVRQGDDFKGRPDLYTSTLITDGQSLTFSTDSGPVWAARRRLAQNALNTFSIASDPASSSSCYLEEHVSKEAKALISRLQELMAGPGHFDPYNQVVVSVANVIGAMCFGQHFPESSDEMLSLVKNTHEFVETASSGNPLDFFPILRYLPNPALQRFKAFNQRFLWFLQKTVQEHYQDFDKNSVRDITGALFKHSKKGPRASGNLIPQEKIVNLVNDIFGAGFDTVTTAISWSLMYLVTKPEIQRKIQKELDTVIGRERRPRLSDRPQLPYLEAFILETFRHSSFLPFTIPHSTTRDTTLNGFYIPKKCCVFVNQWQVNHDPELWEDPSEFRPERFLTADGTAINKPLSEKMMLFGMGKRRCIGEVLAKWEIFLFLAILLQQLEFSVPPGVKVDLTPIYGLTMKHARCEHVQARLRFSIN
- assay: biochemical
- measurement_setup: CYP1A2 AC50 (half-maximal activity concentration)
Numbers only, in µM.

Record excerpt, results attached:
[[record]]
compound = "O=S(=O)(Oc1ccc(Cl)cc1Cl)c1ccccc1 [2,4-Dichlorophenyl benzenesulfonate]"
quantity_unit = "µM"
val = 2.24

[[record]]
compound = "Cl[C@H]1[C@H](Cl)[C@@H](Cl)[C@H](Cl)[C@@H](Cl)[C@H]1Cl"
quantity_unit = "µM"
val = 35.7

[[record]]
compound = "CC(C)(C)c1ccc(CSc2cnn(C(C)(C)C)c(=O)c2Cl)cc1"
quantity_unit = "µM"
val = 25.6


Answer for every listed entry: what is its AC50? The entries follow.
1. Oc1c(Cl)ccc(Cl)c1Cl
2. Cc1ccc2c(c1N)C(=O)c1ccccc1C2=O
3. COC(=O)Nc1nc2ccc(C(=O)c3cccs3)cc2[nH]1
4. c1cnc2c(c1)ccc1cccnc12
5. O=C(c1ccc(Cl)cc1)c1ccc(Cl)cc1

Return:
37
0.58
15.2
11.7
2.34

* * *

What follows is a collection of CYP2D6 AC50 (half-maximal activity concentration) values obtained with human CYP2D6 (Homo sapiens).

Record excerpt, results attached:
[[record]]
compound = "Brc1nc2ccccc2s1"
val = "Inactive"

[[record]]
compound = "Cc1ccc(S(=O)(=O)NCl)cc1 [Chloramine-T trihydrate]"
val = "Inactive"

[[record]]
compound = "O=C(OCCc1ccccc1)c1ccccc1 [2-Phenylethyl benzoate]"
val = "Inconclusive inhibitor"

[[record]]
compound = "CC(=O)[C@H]1CC[C@H]2[C@@H]3C=CC4=CC(=O)CC[C@@]4(C)[C@@H]3CC[C@]12C"
val = "Inconclusive inhibitor"


# next compound below
Enquiry: // lookup CYP2D6 AC50 (half-maximal activity concentration) for O=C(C=Cc1ccccc1)OCCc1ccccc1 [2-Phenylethyl 3-phenylprop-2-enoate]
Return: Inactive

* * *

- assay_target: human CYP2D6 (Homo sapiens, UniProt P10635)
- Sequence (P10635 whole entry): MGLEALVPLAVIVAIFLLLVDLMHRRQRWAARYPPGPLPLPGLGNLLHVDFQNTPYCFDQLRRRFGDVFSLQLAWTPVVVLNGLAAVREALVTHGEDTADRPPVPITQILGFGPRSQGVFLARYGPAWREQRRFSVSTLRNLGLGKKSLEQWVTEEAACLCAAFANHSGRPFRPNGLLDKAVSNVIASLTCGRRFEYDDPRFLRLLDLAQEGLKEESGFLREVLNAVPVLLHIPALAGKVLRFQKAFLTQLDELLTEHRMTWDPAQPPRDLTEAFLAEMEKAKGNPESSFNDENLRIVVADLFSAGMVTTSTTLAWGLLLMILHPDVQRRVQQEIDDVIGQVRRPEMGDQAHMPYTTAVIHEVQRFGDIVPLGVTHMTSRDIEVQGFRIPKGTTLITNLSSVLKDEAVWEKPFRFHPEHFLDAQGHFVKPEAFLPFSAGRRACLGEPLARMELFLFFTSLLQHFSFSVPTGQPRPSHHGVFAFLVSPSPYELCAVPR
- assay: biochemical
# label = MET if IC50 < 7 µM else NOT MET

Some solved entries appear below for comparison.
[[record]]
smiles_representation = "CC(C)OC(=O)c1cc(C(=O)OC(C)C)cc([N+](=O)[O-])c1"
classification = "MET"

[[record]]
smiles_representation = "CCOP(=O)(OCC)OC(=CCl)c1ccc(Cl)cc1Cl"
classification = "NOT MET"

[[record]]
smiles_representation = "CCN(CC)Cc1nccn1-c1ccc([N+](=O)[O-])cc1C(=O)c1ccccc1Cl"
classification = "MET"


Enquiry: For `CCOP(=S)(OCC)Oc1ccc2c(C)c(Cl)c(=O)oc2c1` , is the recorded IC50 below the cut-off of 7 µM?
Return: MET

Enquiry: Now try `C1CCC(NC2CCCCC2)CC1` .
Return: MET

* * *

CYP3A4 (Homo sapiens, UniProt P08684) data, read-out CYP3A4 AC50 (half-maximal activity concentration)
Sequence (P08684 whole entry): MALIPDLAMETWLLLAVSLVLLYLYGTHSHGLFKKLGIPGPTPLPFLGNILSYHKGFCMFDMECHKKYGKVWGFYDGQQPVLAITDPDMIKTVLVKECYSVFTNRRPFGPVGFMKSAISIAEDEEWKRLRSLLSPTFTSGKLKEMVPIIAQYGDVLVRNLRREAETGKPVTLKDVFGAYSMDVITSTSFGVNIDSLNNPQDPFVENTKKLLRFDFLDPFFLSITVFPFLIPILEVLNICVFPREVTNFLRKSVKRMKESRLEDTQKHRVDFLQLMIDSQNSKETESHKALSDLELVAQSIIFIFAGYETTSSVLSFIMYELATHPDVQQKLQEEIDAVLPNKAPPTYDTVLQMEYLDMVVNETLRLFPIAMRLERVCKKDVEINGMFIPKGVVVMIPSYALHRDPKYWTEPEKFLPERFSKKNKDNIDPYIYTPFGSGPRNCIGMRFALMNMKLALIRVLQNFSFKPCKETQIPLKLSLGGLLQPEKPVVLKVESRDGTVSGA

// worked examples, CYP3A4 AC50 (half-maximal activity concentration) included
[[record]]
compound = "Nc1c(Cl)cc([N+](=O)[O-])cc1Cl [Dicloran]"
assay_target = "CYP3A4 (Homo sapiens, UniProt P08684)"
val = "Inactive"

[[record]]
compound = "CCN(CC)c1ccc(C=O)c(O)c1 [4-(Diethylamino)salicylaldehyde]"
assay_target = "CYP3A4 (Homo sapiens, UniProt P08684)"
val = "Inactive"

[[record]]
compound = "CC(C)(C)c1cccc(O)c1 [3-tert-Butylphenol]"
assay_target = "CYP3A4 (Homo sapiens, UniProt P08684)"
val = "Inactive"

[[record]]
compound = "Cl.Nc1c2ccccc2nc2ccccc12.O"
assay_target = "CYP3A4 (Homo sapiens, UniProt P08684)"
val = "Inactive"

[[record]]
compound = "O=C1NC(=O)c2cccc3cccc1c23 [1H-Benzo[de]isoquinoline-1,3(2H)-dione]"
assay_target = "CYP3A4 (Homo sapiens, UniProt P08684)"
val = "Inconclusive activator"

[[record]]
compound = "CC(C)(C)c1ccc(O)c(O)c1 [4-tert-Butylcatechol]"
assay_target = "CYP3A4 (Homo sapiens, UniProt P08684)"
val = "Inactive"

[[record]]
compound = "NS(=O)(=O)c1cc2c(cc1Cl)NCNS2(=O)=O [Hydrochlorothiazide]"
assay_target = "CYP3A4 (Homo sapiens, UniProt P08684)"
val = "Inactive"

[[record]]
compound = "Clc1cnc(Oc2ccc(Oc3ncc(Cl)cc3Cl)cc2)c(Cl)c1"
assay_target = "CYP3A4 (Homo sapiens, UniProt P08684)"
val = "Inconclusive activator"

[[record]]
compound = "COc1ccccc1OC(=O)Oc1ccccc1OC [Guaiacol carbonate]"
assay_target = "CYP3A4 (Homo sapiens, UniProt P08684)"
val = "Inactive"


Enquiry: Any idea what its CYP3A4 AC50 (half-maximal activity concentration) is? The compound is CC1(C)[C@H](C(=O)OCc2cccc(Oc3ccccc3)c2)[C@@H]1C=C(Cl)Cl [cis-Permethrin in cyclohexane]
Return: Inactive

* * *

For each of the molecules below, state its pIC50.
- assay_target: Photinus pyralis (firefly) luciferase (Photinus pyralis)
- Sequence (P08659 whole entry): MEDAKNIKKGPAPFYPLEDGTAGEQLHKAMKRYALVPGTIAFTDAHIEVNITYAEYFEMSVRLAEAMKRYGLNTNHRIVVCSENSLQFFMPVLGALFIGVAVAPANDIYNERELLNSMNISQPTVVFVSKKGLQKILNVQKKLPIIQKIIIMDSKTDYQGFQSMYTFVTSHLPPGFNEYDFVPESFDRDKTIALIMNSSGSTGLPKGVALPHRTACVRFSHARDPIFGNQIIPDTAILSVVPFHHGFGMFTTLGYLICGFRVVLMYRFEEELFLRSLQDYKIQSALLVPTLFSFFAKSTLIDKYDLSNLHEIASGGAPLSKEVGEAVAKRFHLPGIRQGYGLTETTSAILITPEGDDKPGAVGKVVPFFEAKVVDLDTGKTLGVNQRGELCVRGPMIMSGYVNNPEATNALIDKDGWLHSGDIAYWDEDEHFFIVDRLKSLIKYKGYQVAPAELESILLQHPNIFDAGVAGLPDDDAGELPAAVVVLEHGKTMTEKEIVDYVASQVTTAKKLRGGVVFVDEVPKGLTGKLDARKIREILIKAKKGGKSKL
- assay: biochemical
- Format: biochemical
Numbers only, as −log10 of the molar value.

[[record]]
molecule = "Oc1ccc2ccc3cccc4ccc1c2c34 [1-Hydroxypyrene]"
quantity_name = "pIC50"
val = 4.16

[[record]]
molecule = "c1ccc(CCCc2ccncc2)cc1"
quantity_name = "pIC50"
val = 4.26

[[record]]
molecule = "Nc1ccc(N)c2c1C(=O)c1ccccc1C2=O"
quantity_name = "pIC50"
val = 4.82

[[record]]
molecule = "Cc1cc(C)c(N)cc1C"
quantity_name = "pIC50"
val = 4.80


Enquiry: Requested read-out: pIC50. Entry: O=S(=O)(Oc1ccc(Cl)cc1Cl)c1ccccc1 [2,4-Dichlorophenyl benzenesulfonate]
Return: 4.26

* * *

- assay_target: human CYP1A2 (Homo sapiens)
Please map values of AC50 to classes as shown: class 0 (below 20 µM), class 1 (20 µM to below 30 µM), class 2 (30 µM or more)

[[record]]
compound = "CCCCC/C(=C\\c1ccccc1)CO"
assay_target = "human CYP1A2 (Homo sapiens)"
classification = "class 0"

[[record]]
compound = "CC(C)(C)c1ccc(C(=O)CCCCl)cc1"
assay_target = "human CYP1A2 (Homo sapiens)"
classification = "class 0"

[[record]]
compound = "N#CCc1ccc(Cl)cc1Cl"
assay_target = "human CYP1A2 (Homo sapiens)"
classification = "class 1"

[[record]]
compound = "O=C1C=CC(=O)N1c1cccc(N2C(=O)C=CC2=O)c1 [N,N'-1,3-Phenylenedimaleimide]"
assay_target = "human CYP1A2 (Homo sapiens)"
classification = "class 0"

[[record]]
compound = "CC(C)(COC(=O)c1ccccc1)COC(=O)c1ccccc1 [Neopentyl glycol dibenzoate]"
assay_target = "human CYP1A2 (Homo sapiens)"
classification = "class 2"


Enquiry: Hello team, could you let me know which band the following compound falls into: C=C(C)C(=O)OCCCCCCOC(=O)C(=C)C [1,6-Hexanediol dimethacrylate]
Return: class 2

Enquiry: Same read-out for `CC(=O)c1cc(C(C)(C)C)cc2c1CCC2(C)C` ?
Return: class 2

Enquiry: Queued: O=C(c1ccccc1)c1cccc(O)c1 [3-Hydroxybenzophenone]
Return: class 2

Enquiry: Another compound: `Cc1cc(O)c(Cl)cc1C`
Return: class 1

Enquiry: Lookup C[C@]12CC[C@H]3[C@@H](CCC4=CC(=O)CC[C@@H]43)[C@@H]1CC[C@@H]2OC(=O)CCC1CCCCC1 [Nandrolone cyclohexylpropionate]
Return: class 1

* * *

Measured CYP2D6 IC50 (half-maximal inhibitory concentration) on human CYP2D6 (Homo sapiens) follows.
quantity_name: CYP2D6 IC50 (half-maximal inhibitory concentration)

[[record]]
compound = "O=C(C(=O)c1ccc(Br)cc1)c1ccc(Br)cc1"
val = "Inactive"

[[record]]
compound = "COC(=O)N(C(=O)N1COC2(C(=O)OC)Cc3cc(Cl)ccc3C2=N1)c1ccc(OC(F)(F)F)cc1 (racemic) [(+-)-Indoxacarb]"
val = "Inactive"

[[record]]
compound = "c1ccc2c(c1)-c1ccc3ccc4cccc5cc-2c1c3c45"
val = "Inactive"

[[record]]
compound = "CCOP(=S)(OCC)Oc1ccc(Cl)cc1Cl"
val = "Inactive"

